testedOn: TYK2 kinase domain (Homo sapiens, UniProt P29597)
Construct: The activity of the isolated JAK1, JAK2 or TYK2 kinase domain was measured
Sequence (P29597 897-1176 limits assumed): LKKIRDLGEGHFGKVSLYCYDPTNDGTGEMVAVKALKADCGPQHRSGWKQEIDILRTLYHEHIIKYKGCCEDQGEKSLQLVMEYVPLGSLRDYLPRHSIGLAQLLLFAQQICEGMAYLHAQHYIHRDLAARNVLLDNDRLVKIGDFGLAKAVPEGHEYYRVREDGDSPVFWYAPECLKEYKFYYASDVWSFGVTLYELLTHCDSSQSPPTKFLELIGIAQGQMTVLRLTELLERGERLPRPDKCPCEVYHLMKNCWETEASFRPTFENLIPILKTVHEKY
measurementProtocol: JAK1, JAK2 and TYK2 Inhibition Assay Protocol (Caliper LabChip, isolated kinase domain)
Type: biochemical
measurementSetup: Table 1; 1 nM purified TYK2 enzyme, 25 uM ATP, Morrison tight binding model; read-out: TYK2 Ki
pKi: −log10 of the molar value.
quantityKind: pKi

{"structureString": "Cc1cc(Nc2nccc3nc(-c4c(F)cccc4C#N)[nH]c23)ncn1", "pKi": 9.00}
{"structureString": "Cc1cc(Nc2nccc3nc(-c4c(Cl)cccc4C#N)[nH]c23)ncn1", "pKi": 9.10}
{"structureString": "CNc1cc(Nc2nccc3nc(-c4c(F)cccc4C#N)[nH]c23)ncn1", "pKi": 9.15}

---

testedOn: TYK2 kinase domain (Homo sapiens)
Construct: The activity of the isolated JAK1, JAK2 or TYK2 kinase domain was measured
measurementProtocol: JAK1, JAK2 and TYK2 Inhibition Assay Protocol (Caliper LabChip, isolated kinase domain)
Assay type: biochemical
measurementSetup: Table 1; 1 nM purified TYK2 enzyme, 25 uM ATP, Morrison tight binding model; read-out: TYK2 Ki
pKi: −log10 of the molar value.
quantityKind: pKi

P. N#Cc1cccc(Cl)c1-c1nc2ccnc(NC(=O)C3CC3)c2[nH]1 [Example 10]
Q. N#Cc1cccc(Cl)c1-c1nc2ccnc(Nc3cc(N)ncn3)c2[nH]1 [Example 2]
R. N#Cc1cccc(Cl)c1-c1nc2ccnc(Nc3cc(CO)ncn3)c2[nH]1 [Example 5]
Sort these molecules on pKi so the largest reading comes first. Arrange the labels as the request states and list them.
Q, R, P
(Q: 9.40, R: 9.10, P: 8.89)

A. CNc1cc(Nc2nccc3nc(-c4c(Cl)cccc4C#N)[nH]c23)ncn1 [Example 6]
B. N#Cc1cccc(F)c1-c1nc2ccnc(Nc3cc(CO)ncn3)c2[nH]1 [Example 9]
Look at A and B . Which one has the lower recorded pKi number? // return label of chosen record
B
(B: 8.70, A: 9.22)

---

testedOn: TYK2 kinase domain (Homo sapiens, UniProt P29597)
Construct: The activity of the isolated JAK1, JAK2 or TYK2 kinase domain was measured
measurementProtocol: JAK1, JAK2 and TYK2 Inhibition Assay Protocol (Caliper LabChip, isolated kinase domain)
Type: biochemical
measurementSetup: 1 nM purified TYK2 enzyme, 25 uM ATP, Morrison tight binding model; read-out: Ki values for TYK2 inhibition
Protocol: The activity of the isolated JAK1, JAK2 or TYK2 kinase domain was measured by monitoring phosphorylation of a peptide derived from JAK3 (Val-Ala-Leu-Val-Asp-Gly-Tyr-Phe-Arg-Leu-Thr-Thr) fluorescently labeled on the N-terminus with 5-carboxyfluorescein using the Caliper LabChip technology (Caliper Life Sciences, Hopkinton, Mass.). […] Ki values were then determined using the Morrison tight binding model. […]
pKi: −log10 of the molar value.
quantityKind: pKi

{"structureString": "Cc1cc(Nc2nccc3nc(-c4c(C#N)cccc4C#N)[nH]c23)ncn1", "testedOn": "TYK2 kinase domain (Homo sapiens, UniProt P29597)", "numericValue": 8.57}

A. N#Cc1cccc(F)c1-c1nc2ccnc(Nc3cc(N)ncn3)c2[nH]1
B. N#Cc1cccc(F)c1-c1nc2ccnc(NC(=O)C3CC3)c2[nH]1
Look at A and B . Which one has the lower recorded pKi number? // return label of chosen record
B
